# Measured Target: NEK7 (Homo sapiens (Human), UniProt Q8TDX7+Q96SW2)
# Sequence (Q8TDX7 whole entry): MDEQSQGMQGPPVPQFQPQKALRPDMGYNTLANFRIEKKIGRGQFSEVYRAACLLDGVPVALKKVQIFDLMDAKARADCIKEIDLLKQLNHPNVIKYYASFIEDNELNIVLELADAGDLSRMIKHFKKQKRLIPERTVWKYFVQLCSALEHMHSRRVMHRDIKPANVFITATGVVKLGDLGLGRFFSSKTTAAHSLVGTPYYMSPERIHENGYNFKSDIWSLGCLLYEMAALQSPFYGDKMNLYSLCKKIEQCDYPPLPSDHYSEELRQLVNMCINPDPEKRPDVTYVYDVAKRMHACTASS
# Sequence (Q96SW2 whole entry): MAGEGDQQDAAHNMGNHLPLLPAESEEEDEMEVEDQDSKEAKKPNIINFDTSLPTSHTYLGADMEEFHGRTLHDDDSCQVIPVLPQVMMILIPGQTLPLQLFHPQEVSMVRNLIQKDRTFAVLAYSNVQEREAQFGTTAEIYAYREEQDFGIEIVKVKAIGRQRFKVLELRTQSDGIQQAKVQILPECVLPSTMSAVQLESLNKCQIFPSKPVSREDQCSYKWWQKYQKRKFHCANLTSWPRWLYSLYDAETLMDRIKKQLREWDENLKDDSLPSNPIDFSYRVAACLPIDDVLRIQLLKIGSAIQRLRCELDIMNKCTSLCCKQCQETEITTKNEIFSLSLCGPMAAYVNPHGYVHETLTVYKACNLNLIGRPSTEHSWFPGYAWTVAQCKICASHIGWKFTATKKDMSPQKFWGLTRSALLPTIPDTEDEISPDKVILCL
# Sequence (Q16531 2-1140 partner): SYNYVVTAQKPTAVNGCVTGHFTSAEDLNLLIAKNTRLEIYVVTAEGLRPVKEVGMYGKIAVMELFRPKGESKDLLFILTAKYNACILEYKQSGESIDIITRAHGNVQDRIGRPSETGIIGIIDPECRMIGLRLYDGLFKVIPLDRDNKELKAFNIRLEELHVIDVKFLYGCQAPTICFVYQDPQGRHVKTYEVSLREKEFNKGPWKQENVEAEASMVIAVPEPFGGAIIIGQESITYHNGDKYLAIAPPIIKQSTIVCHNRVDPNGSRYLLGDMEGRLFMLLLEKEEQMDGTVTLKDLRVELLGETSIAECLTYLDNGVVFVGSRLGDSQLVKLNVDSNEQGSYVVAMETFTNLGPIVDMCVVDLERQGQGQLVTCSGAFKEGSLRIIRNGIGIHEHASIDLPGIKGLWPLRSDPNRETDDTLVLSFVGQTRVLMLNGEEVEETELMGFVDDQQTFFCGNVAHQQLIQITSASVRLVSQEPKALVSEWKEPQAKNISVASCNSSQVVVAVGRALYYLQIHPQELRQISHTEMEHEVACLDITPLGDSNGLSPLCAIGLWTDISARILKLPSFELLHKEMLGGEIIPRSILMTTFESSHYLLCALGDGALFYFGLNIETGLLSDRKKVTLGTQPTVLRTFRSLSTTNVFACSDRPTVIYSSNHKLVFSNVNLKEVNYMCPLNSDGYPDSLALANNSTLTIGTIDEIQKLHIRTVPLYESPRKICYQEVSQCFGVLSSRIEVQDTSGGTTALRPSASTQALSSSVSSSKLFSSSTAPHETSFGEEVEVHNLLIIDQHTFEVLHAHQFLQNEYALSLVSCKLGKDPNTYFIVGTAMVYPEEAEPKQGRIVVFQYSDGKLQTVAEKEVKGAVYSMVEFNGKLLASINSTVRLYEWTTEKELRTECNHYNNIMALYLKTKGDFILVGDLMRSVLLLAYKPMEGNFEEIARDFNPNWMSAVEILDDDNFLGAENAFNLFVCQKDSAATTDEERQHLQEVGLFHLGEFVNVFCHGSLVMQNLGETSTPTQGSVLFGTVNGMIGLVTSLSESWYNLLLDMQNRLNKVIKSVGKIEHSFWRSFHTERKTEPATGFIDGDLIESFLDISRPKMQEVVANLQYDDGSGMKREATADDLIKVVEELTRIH
# Test Protocol: NEK7 NanoBiT degradation assay in Cal51 NEK7 NanoBiT cell line
# Assay type: cell-based
# Applied Conditions: Cal51 NEK7 NanoBiT cells, 24 hours; read-out: NEK7 NanoBiT DC50
Outcome Measure: DC50 (nM)

Guide cases for DC50, answers given:
{"Compound": "CC(C)(C(=O)NCc1cc(Cl)c(C2CCC(=O)NC2=O)c(Cl)c1)c1nc2ccccc2o1 (centres unmarked)", "Measured": 1}
{"Compound": "COc1conc1C(C)(C)C(=O)NCc1cc(Cl)c(C2CCC(=O)NC2=O)c(Cl)c1 (centres unmarked)", "Measured": 6}
{"Compound": "CC(C)(C(=O)NCc1ccc(C2CCC(=O)NC2=O)c(Cl)c1)c1ccccc1F (centres unmarked)", "Measured": 76}
{"Compound": "CC(C)(C(=O)NCc1ccc(C2CCC(=O)NC2=O)c(Cl)c1)c1cccc(F)c1 (centres unmarked)", "Measured": 23}
{"Compound": "COCc1ccc(C(C)(C)C(=O)NCc2cc(Cl)c(C3CCC(=O)NC3=O)c(Cl)c2)nn1 (centres unmarked)", "Measured": 18}

I: CC(C)(C(=O)NCc1cc(Cl)c(C2CCC(=O)NC2=O)c(Cl)c1)N1CCc2ccccc21 (centres unmarked)
II: CC(C)(C(=O)NCc1cc(Cl)c(C2CCC(=O)NC2=O)c(Cl)c1)c1ccc2ncoc2n1 (centres unmarked)
Asked: Would you let me know which has the greater DC50 value, I or II ? Reply briefly: the label of your chosen item.
Given back: I

---

# Measured Target: NEK7 (Homo sapiens (Human), UniProt Q8TDX7+Q96SW2)
# Test Protocol: NEK7 NanoBiT degradation assay in Cal51 NEK7 NanoBiT cell line
# Type: cell-based
# Applied Conditions: Cal51 NEK7 NanoBiT cells, 24 hours; read-out: NEK7 NanoBiT DC50
Outcome Measure: DC50 (nM)

Guide cases for DC50, answers given:
{"Compound": "CC(C)(C(=O)NCc1cc(Cl)c(C2CCC(=O)NC2=O)c(Cl)c1)c1cnc(C(F)F)cn1 (stereo not shown) [Compound 196]", "DC50, nM": 9}
{"Compound": "CC(C)(C(=O)NCc1cc(Cl)c(C2CCC(=O)NC2=O)c(Cl)c1)c1ncc(C(F)(F)F)cn1 (stereo not shown) [Compound 175]", "DC50, nM": 6}
{"Compound": "CC(C)(C(=O)NCc1ccc(C2CCC(=O)NC2=O)c(Cl)c1)c1ccc(Cl)cc1 (stereo not shown) [Compound 101]", "DC50, nM": 5}
{"Compound": "CC(C)(C(=O)NCc1cc(Cl)c(C2CCC(=O)NC2=O)c(Cl)c1)c1nocc1C(F)(F)F (stereo not shown) [Compound 220]", "DC50, nM": 8}
{"Compound": "CC(C)(C(=O)NCc1cc(Cl)c(C2CCC(=O)NC2=O)c(Cl)c1)c1ccc2[nH]c(=O)oc2c1 (stereo not shown) [Compound 77]", "DC50, nM": 3}

a: COc1cnc(C(C)(C)C(=O)NCc2cc(F)c(C3CCC(=O)NC3=O)c(Cl)c2)nc1 (stereo not shown) [Compound 256]
b: Cn1cncc1C(C)(C)C(=O)NCc1cc(Cl)c(C2CCC(=O)NC2=O)c(Cl)c1 (stereo not shown) [Compound 123]
c: CC(F)(F)c1cnc(C(C)(C)C(=O)NCc2cc(F)c(C3CCC(=O)NC3=O)c(Cl)c2)cn1 (stereo not shown) [Compound 255]
d: Cc1ncc(C(C)(C)C(=O)NCc2cc(Cl)c(C3CCC(=O)NC3=O)c(Cl)c2)o1 (stereo not shown) [Compound 282]
Asked: Please order the records by their reported DC50, lowest number first. Please list each label once, in the requested order.
Given back: a, d, b, c
(a: 11 nM, d: 26 nM, b: 100 nM, c: 464 nM)

I: O=C1CCC(c2ccc(CNC(=O)C3(c4ccc(F)cc4)CCOCC3)cc2Cl)C(=O)N1 (stereo not shown) [Compound 138]
II: CC(C)(C(=O)NCc1cc(Cl)c(C2CCC(=O)NC2=O)c(Cl)c1)c1nnc(C(F)F)o1 (stereo not shown) [Compound 200]
Asked: Please let me know which one, I or II , has a lower measured DC50 value. Reply briefly: the label of your chosen item.
Given back: I

I: CC(C)(C(=O)NCc1cc(Cl)c(C2CCC(=O)NC2=O)c(Cl)c1)c1c[nH]cn1 (stereo not shown) [Compound 118]
II: CC(C)(C(=O)NCc1cc(Cl)c(C2CCC(=O)NC2=O)c(Cl)c1)c1nccc(CO)n1 (stereo not shown) [Compound 215]
III: CC(C)(C(=O)NCc1cc(Cl)c(C2CCC(=O)NC2=O)c(Cl)c1)c1nc(C2CC2)no1 (stereo not shown) [Compound 218]
IV: CC(C)(C(=O)NCc1cc(Cl)c(C2CCC(=O)NC2=O)c(Cl)c1)c1ccccn1 (stereo not shown) [Compound 20]
Asked: Please order the records by their reported DC50, lowest number first. Please list each label once, in the requested order.
Given back: IV, III, II, I
(IV: 13 nM, III: 49 nM, II: 118 nM, I: 760 nM)
